Source listed as paper PMC5355235.

// values below are reported IC50
Tested on: BaF3/ITD cells
Method summary: MTT growth inhibition assay, BaF3 FLT3-ITD cells
Format: cell-based
Run conditions: Mus musculus, no IL-3, 48 h, read-out: Proliferation IC50

{"Substance smiles": "CC1(COc2ccc3c(c2)ncn3-c2ccc3cccc(N4CCC(N)CC4)c3n2)COC1", "System name": "BaF3/ITD cells", "Qualifier symbol": "=", "IC50, nM": 57}
{"Substance smiles": "C[C@]12O[C@H](C[C@]1(O)CO)n1c3ccccc3c3c4c(c5c6ccccc6n2c5c31)CNC4=O", "System name": "BaF3/ITD cells", "Qualifier symbol": "=", "IC50, nM": 8.6}
{"Substance smiles": "Cc1ccc(C(=O)Nc2ccc(CN3CCN(C)CC3)c(C(F)(F)F)c2)cc1C#Cc1cnc2cccnn12", "System name": "BaF3/ITD cells", "Qualifier symbol": "<", "IC50, nM": 1}
